tested on: E. coli HA165; assay: MIC, agar diffusion, E. coli HA165; format: cell-based; settings: Escherichia coli, read-out: in vitro activities MIC
measured_metric: MIC

• CC(=O)O[C@H]1C[C@@]2(C)C(C[C@@H](O)C3[C@@]4(C)CC[C@@H](O)[C@@H](C)C4CC[C@@]32C)[C@@H]1[C@H](CCCC(C)C)C(=O)NCCCNCCCCNCCCN (some centres unmarked) = 16 µg/mL
• CC(C)CCCC(C(=O)NCCCNCCCCNCCCN)[C@@H]1CC[C@@]2(C)C1C[C@@H](O)C1[C@@]3(C)CC[C@@H](O)[C@@H](C)C3CC[C@@]12C (some centres unmarked) = 4 µg/mL
• CC(=O)O[C@H]1C[C@@]2(C)C(CCC3[C@@]4(C)CC[C@@H](O)[C@@H](C)C4CC[C@@]32C)[C@@H]1[C@H](CCCC(C)C)C(=O)NCCNCCCNCCN (some centres unmarked) = 16 µg/mL
• CC(=O)O[C@H]1C[C@@]2(C)C(C[C@@H](O)C3[C@@]4(C)CC[C@@H](OC(C)=O)[C@@H](C)C4CC[C@@]32C)[C@@H]1[C@H](CCCC(C)C)C(=O)NCCCNCCCNCCCN (some centres unmarked) = 4 µg/mL
• CC(C)CCCC(C(=O)NCCNCCCNCCN)[C@H]1CC[C@@]2(C)C1CCC1[C@@]3(C)CC[C@@H](O)[C@@H](C)C3CC[C@@]12C (some centres unmarked) = 4 µg/mL

====

test system: S. aureus CJ234F; test: MIC, agar diffusion, S. aureus CJ234F; format: cell-based; conditions: Staphylococcus aureus; S. aureus CJ234F (MRSA, Fus. resistant); read-out: in vitro activities MIC
measured_metric: MIC (µg/mL)

- CC(=O)NC[C@H]1CN(c2ccc(N3CCOCC3)c(F)c2)C(=O)O1 [Linezolid, reference compound]: 1
- CC(C)CCCC(C(=O)NCCCNCCCNCCCN)[C@@H]1CC[C@@]2(C)C1C[C@@H](O)C1[C@@]3(C)CC[C@@H](O)[C@@H](C)C3CC[C@@]12C (stereo partly drawn) [Compound 145]: 1
- CC(=O)O[C@H]1C[C@@]2(C)C(C[C@@H](O)C3[C@@]4(C)CC[C@@H](O)[C@@H](C)C4CC[C@@]32C)[C@@H]1[C@H](CCCC(C)C)C(=O)NCCCCNCCCNCCCCN (stereo partly drawn) [Compound 123]: 4

====

Overview of recorded MIC for various molecules
tested on: S. aureus CJ200; assay: MIC, agar diffusion, S. aureus CJ200; assay type: cell-based; conditions: Staphylococcus aureus, read-out: in vitro activities MIC
measured_metric: MIC

• CC(=O)O[C@H]1C[C@@]2(C)C(C[C@@H](O)C3[C@@]4(C)CC[C@@H](O)[C@@H](C)C4CC[C@@]32C)[C@@H]1[C@H](CCCC(C)C)C(=O)NCCCCNCCCNCCCCN (some centres unmarked) = 4 mg/L
• CC(C)CCCC(C(=O)NCCCNCCCCNCCCN)[C@@H]1CC[C@@]2(C)C1C[C@@H](O)C1[C@@]3(C)CC[C@@H](O)[C@@H](C)C3CC[C@@]12C (some centres unmarked) = 1 mg/L
• CC(=O)O[C@H]1C[C@@]2(C)C(CCC3[C@@]4(C)CC[C@@H](O)[C@@H](C)C4CC[C@@]32C)[C@@H]1[C@H](CCCC(C)C)C(=O)NCCNCCCNCCN (some centres unmarked) = 4 mg/L
• CC(=O)O[C@H]1C[C@@]2(C)[C@@H](C[C@@H](O)[C@H]3[C@@]4(C)CC[C@@H](O)[C@@H](C)[C@@H]4CC[C@@]32C)/C1=C(\CCC=C(C)C)C(=O)O = 0.02 mg/L
• CC(C)CCCC(C(=O)NCCCCNCCCN)[C@H]1CC[C@@]2(C)C1CCC1[C@@]3(C)CC[C@@H](O)[C@@H](C)C3CC[C@@]12C (some centres unmarked) = 4 mg/L

====

Overview of recorded MIC for various molecules
tested on: Propionibacterium acnes FN33; test: MIC, agar diffusion, Propionibacterium acnes FN33; type: cell-based; conditions: Cutibacterium acnes, read-out: in vitro activities MIC
measured_metric: MIC (µg/mL)

* CC(C)CCCC(C(=O)NCCCNCCCNCCCN)[C@@H]1CC[C@@]2(C)C1C[C@@H](O)C1[C@@]3(C)CC[C@@H](O)[C@@H](C)C3CC[C@@]12C (some centres unmarked) | 1
* CC(=O)O[C@H]1C[C@@]2(C)C(CCC3[C@@]4(C)CC[C@@H](O)[C@@H](C)C4CC[C@@]32C)[C@@H]1[C@H](CCCC(C)C)C(=O)NCCNCCCNCCN (some centres unmarked) | 4
* CC(=O)O[C@H]1C[C@@]2(C)C(C[C@@H](O)C3[C@@]4(C)CC[C@@H](O)[C@@H](C)C4CC[C@@]32C)[C@@H]1[C@H](CCCC(C)C)C(=O)NCCCCNCCCN (some centres unmarked) | 4
* CC(=O)O[C@H]1C[C@@]2(C)C(CCC3[C@@]4(C)CC[C@@H](OS(=O)(=O)O)[C@@H](C)C4CC[C@@]32C)[C@@H]1[C@H](CCCC(C)C)C(=O)NCCCNCCCCNCCCN (some centres unmarked) | 1
* CC(=O)O[C@H]1C[C@@]2(C)[C@@H](C[C@@H](O)[C@H]3[C@@]4(C)CC[C@@H](O)[C@@H](C)[C@@H]4CC[C@@]32C)/C1=C(\CCC=C(C)C)C(=O)O | 0.2

====

Overview of recorded MIC for various compounds
tested on: S. aureus N6; assay: MIC, agar diffusion, S. aureus N6; type: cell-based; conditions: Staphylococcus aureus; S. aureus N6 (Fus. resistant); read-out: in vitro activities MIC
measured_metric: MIC

• CC(C)CCCC(C(=O)NCCNCCCNCCN)[C@H]1CC[C@@]2(C)C1CCC1[C@@]3(C)CC[C@@H](O)[C@@H](C)C3CC[C@@]12C (stereo partly shown) = 4 µg/mL
• CC(C)CCCC(C(=O)NCCCNCCCNCCCN)[C@@H]1CC[C@@]2(C)C1C[C@@H](O)C1[C@@]3(C)CC[C@@H](O)[C@@H](C)C3CC[C@@]12C (stereo partly shown) = 1 µg/mL
• CC(=O)O[C@H]1C[C@@]2(C)C(C[C@@H](O)C3[C@@]4(C)CC[C@@H](OC(C)=O)[C@@H](C)C4CC[C@@]32C)[C@@H]1[C@H](CCCC(C)C)C(=O)NCCCNCCCCNCCCN (stereo partly shown) = 4 µg/mL
• CC(=O)O[C@H]1C[C@@]2(C)C(CCC3[C@@]4(C)CC[C@@H](O)[C@@H](C)C4CC[C@@]32C)[C@@H]1[C@H](CCCC(C)C)C(=O)NCCCNCCCN (stereo partly shown) = 4 µg/mL
• CC(C)CCCC(C(=O)NCCCNCCCCNCCCN)[C@@H]1CC[C@@]2(C)C1C[C@@H](O)C1[C@@]3(C)CC[C@@H](O)[C@@H](C)C3CC[C@@]12C (stereo partly shown) = 1 µg/mL
• CC(=O)O[C@H]1C[C@@]2(C)C(C[C@@H](O)C3[C@@]4(C)CC[C@@H](O)[C@@H](C)C4CC[C@@]32C)[C@@H]1[C@H](CCCC(C)C)C(=O)NCCCNCCCCNCCCN (stereo partly shown) = 1 µg/mL
• CC(=O)O[C@H]1C[C@@]2(C)C(CCC3[C@@]4(C)CC[C@@H](O)[C@@H](C)C4CC[C@@]32C)[C@@H]1[C@H](CCCC(C)C)C(=O)NCCNCCCNCCN (stereo partly shown) = 4 µg/mL
• CC(C)CCCC(C(=O)NCCCCNCCCN)[C@H]1CC[C@@]2(C)C1CCC1[C@@]3(C)CC[C@@H](O)[C@@H](C)C3CC[C@@]12C (stereo partly shown) = 4 µg/mL
• CC(=O)O[C@H]1C[C@@]2(C)C(C[C@@H](O)C3[C@@]4(C)CC[C@@H](O)[C@@H](C)C4CC[C@@]32C)[C@@H]1[C@H](CCCC(C)C)C(=O)NCCCCNCCCNCCCCN (stereo partly shown) = 4 µg/mL
• CC(=O)O[C@H]1C[C@@]2(C)C(CCC3[C@@]4(C)CC[C@@H](OS(=O)(=O)O)[C@@H](C)C4CC[C@@]32C)[C@@H]1[C@H](CCCC(C)C)C(=O)NCCCNCCCCNCCCN (stereo partly shown) = 4 µg/mL

====

test system: S. aureus CJ247; assay: MIC, agar diffusion, S. aureus CJ247; format: cell-based; conditions: Staphylococcus aureus, read-out: in vitro activities MIC
Overview of recorded MIC for various compounds
measured_metric: MIC

* CC(=O)O[C@H]1C[C@@]2(C)C(CCC3[C@@]4(C)CC[C@@H](OS(=O)(=O)O)[C@@H](C)C4CC[C@@]32C)[C@@H]1[C@H](CCCC(C)C)C(=O)NCCCNCCCNCCCN (stereo partly drawn) | 1 µg/mL
* CC(C)CCCC(C(=O)NCCCNCCCNCCCN)[C@@H]1CC[C@@]2(C)C1C[C@@H](O)C1[C@@]3(C)CC[C@@H](O)[C@@H](C)C3CC[C@@]12C (stereo partly drawn) | 1 µg/mL
* CC(=O)O[C@H]1C[C@@]2(C)[C@@H](C[C@@H](O)[C@H]3[C@@]4(C)CC[C@@H](O)[C@@H](C)[C@@H]4CC[C@@]32C)/C1=C(\CCC=C(C)C)C(=O)O | 0.02 µg/mL
* CC(C)CCCC(C(=O)NCCCCNCCCN)[C@H]1CC[C@@]2(C)C1CCC1[C@@]3(C)CC[C@@H](O)[C@@H](C)C3CC[C@@]12C (stereo partly drawn) | 4 µg/mL
* C/C(=C\C(=O)OCCCCCCCCC(=O)O)C[C@@H]1OC[C@H](C[C@@H]2O[C@H]2[C@@H](C)[C@H](C)O)[C@@H](O)[C@H]1O [Mupirocin, reference compound] | 0.5 µg/mL
* CC(=O)O[C@H]1C[C@@]2(C)C(C[C@@H](O)C3[C@@]4(C)CC[C@@H](OC(C)=O)[C@@H](C)C4CC[C@@]32C)[C@@H]1[C@H](CCCC(C)C)C(=O)NCCCNCCCCNCCCN (stereo partly drawn) | 4 µg/mL
